test system: Candida albicans; assay: Antifungal activity against Candida albicans ATCC SC5314 measured after 24 hrs by micro-broth dilution assay; assay type: functional
The label is 1 for MIC below 0.06 µg/mL and -1 for MIC equal to or exceeding 0.06 µg/mL.

Please review the following examples before continuing.
Task: Please check: MIC for COc1cccc(C[Se]C(Cn2ccnc2)c2ccc(F)cc2F)c1 (stereo unspecified) , strictly under 0.06 µg/mL or not?
Output: -1

Task: Does the reported MIC of the following molecule sit strictly below 0.06 µg/mL? Fc1cccc(C[Se]C(Cn2ccnc2)c2ccc(Cl)cc2Cl)c1 (stereo unspecified)
Output: 1

Task: Strictly below 0.06 µg/mL: is that where MIC of Fc1ccc(Br)c(C[Se]C(Cn2ccnc2)c2ccc(Cl)cc2Cl)c1 (stereo unspecified) sits?
Output: 1

Continuing:
Task: Find out if reported MIC for Clc1ccc(C(Cn2ccnc2)[Se]Cc2ccccc2)c(Cl)c1 (stereo unspecified) is less than 0.06 µg/mL
Output: 1

Task: Given the entry Cc1ccc(C[Se]C(Cn2ccnc2)c2ccc(Cl)cc2Cl)cc1 (stereo unspecified) , would its reported MIC be below 0.06 µg/mL?
Output: -1

Task: MIC under 0.06 µg/mL? Item: COc1cc(C[Se]C(Cn2ccnc2)c2ccc(Cl)cc2Cl)cc(OC)c1 (stereo unspecified)
Output: -1

Task: Lab note: confirm whether the reported MIC for this molecule is below 0.06 µg/mL, equality not counting. molecule: Clc1ccc(C(Cn2ccnc2)[Se]Cc2ccccc2Br)c(Cl)c1 (stereo unspecified)
Output: 1

Task: Dear colleague, could you confirm whether MIC of Fc1ccc(C[Se]C(Cn2ccnc2)c2ccc(Cl)cc2Cl)cc1 (stereo unspecified) falls below 0.06 µg/mL? Thanks.
Output: 1

###

system: Candida albicans; assay: Antifungal activity against Candida albicans ATCC SC5314 measured after 24 hrs by micro-broth dilution assay; assay type: functional
This listing pairs compounds with measured MIC.
# unit: mg/L | format: bare number

These solved cases illustrate the format of a correct answer.
Task: Kindly state the measured MIC obtained for Fc1ccc(C(Cn2ccnc2)[Se]Cc2ccc(Cl)cc2Cl)c(F)c1 (stereo unspecified) with Candida albicans.
Output: 0.13

Task: Notebook entry, Candida albicans assay: MIC of Clc1ccc(C[Se]C(Cn2ccnc2)c2ccc(Cl)cc2Cl)cc1 (stereo unspecified) = ?
Output: 0.03

Task: Record Fc1ccc(C[Se]C(Cn2ccnc2)c2ccc(F)cc2F)cc1 (stereo unspecified) : what is its MIC with Candida albicans?
Output: 0.03

Task: Candida albicans / MIC / COc1cc(C[Se]C(Cn2ccnc2)c2ccc(F)cc2F)cc(OC)c1 (stereo unspecified) : value?
Output: 0.13

Task: Give MIC (Candida albicans) of the following compound: Clc1ccc(C(Cn2ccnc2)[Se]Cc2ccccc2Cl)c(Cl)c1 (stereo unspecified)
Output: 0.01

Next item in the queue.
Task: Candida albicans / MIC / Fc1ccc(C(Cn2ccnc2)[Se]Cc2ccccc2Cl)c(F)c1 (stereo unspecified) : value?
Output: 0.01

###

tested on: [Candida] zeylanoides; assay: Antifungal activity against Candida zeylanoides CMGCC2.3739 measured after 24 hrs by micro-broth dilution assay; format: functional; settings: Dujonia zeylanoides
Reported MIC values for a set of molecules
Use µg/mL as the unit, but write only the number.

Below, each entry is followed by its recorded MIC result.
Task: Look up MIC for this molecule: Clc1ccc(C(Cn2ccnc2)[Se]Cc2ccccc2)c(Cl)c1 (stereo not given)
Output: 0.5

Task: Quick one: MIC of Fc1ccc(C(Cn2ccnc2)[Se]Cc2ccccc2)c(F)c1 (stereo not given) ?
Output: 0.5

---
Task: Requested field: MIC. Item: COc1ccc(C[Se]C(Cn2ccnc2)c2ccc(Cl)cc2Cl)cc1 (stereo not given)
Output: 8

Task: Given the entry Clc1ccc(C[Se]C(Cn2ccnc2)c2ccc(Cl)cc2Cl)cc1 (stereo not given) , report its measured MIC.
Output: 8

Task: What does the data say about its MIC? Entry: COc1ccc(C[Se]C(Cn2ccnc2)c2ccc(F)cc2F)cc1 (stereo not given)
Output: 2

Task: What value of measured MIC is listed for Cc1cccc(C[Se]C(Cn2ccnc2)c2ccc(F)cc2F)c1 (stereo not given) ?
Output: 1

Task: // MIC lookup, key: Fc1ccc(C(Cn2ccnc2)[Se]Cc2ccc(Br)cc2)c(F)c1 (stereo not given)
Output: 0.25

Task: Fill in the blank: the reported MIC of Fc1ccc(C(Cn2ccnc2)[Se]Cc2ccccc2Br)c(F)c1 (stereo not given) is ____.
Output: 0.25

Task: # query: MIC of entry Fc1ccc(C(Cn2ccnc2)[Se]Cc2ccccc2Cl)c(F)c1 (stereo not given)
Output: 0.25

###

system: Candida albicans; assay: Antifungal activity against Candida albicans ATCC SC5314 measured after 24 hrs by micro-broth dilution assay; format: functional
One threshold, 0.1 µg/mL, splits the recorded MIC values: lower ones are True, equal or higher ones are False.

These solved cases illustrate the format of a correct answer.
Task: Is MIC of Cc1ccc(C[Se]C(Cn2ccnc2)c2ccc(F)cc2F)cc1C (stereo unspecified) strictly below 0.1 µg/mL?
Output: False

Task: Report whether reported MIC is lower than 0.1 µg/mL (strictly) for COc1ccc(C[Se]C(Cn2ccnc2)c2ccc(F)cc2F)cc1 (stereo unspecified)
Output: False

Task: Does the reported MIC of Fc1ccc(C(Cn2ccnc2)[Se]Cc2ccccc2Br)c(F)c1 (stereo unspecified) stay below 0.1 µg/mL?
Output: True

Task: I'd appreciate it if you could check whether Cc1cccc(C[Se]C(Cn2ccnc2)c2ccc(F)cc2F)c1 (stereo unspecified) has MIC smaller than 0.1 µg/mL.
Output: True

Task: Just wondering, is MIC of Clc1ccc(COC(Cn2ccnc2)c2ccc(Cl)cc2Cl)c(Cl)c1 (stereo unspecified) [MICONAZOLE] below 0.1 µg/mL?
Output: True

Continuing:
Task: Does the reported MIC of Cc1ccc(C[Se]C(Cn2ccnc2)c2ccc(F)cc2F)cc1 (stereo unspecified) stay below 0.1 µg/mL?
Output: True

Task: hey, is MIC for Fc1ccc(C(Cn2ccnc2)[Se]Cc2ccccc2)c(F)c1 (stereo unspecified) lower than 0.1 µg/mL or not?
Output: False

Task: Could you please tell me whether MIC recorded for Fc1cccc(C[Se]C(Cn2ccnc2)c2ccc(F)cc2F)c1 (stereo unspecified) is less than 0.1 µg/mL?
Output: True

Task: Strictly below 0.1 µg/mL in MIC? COc1cc(Br)c(C[Se]C(Cn2ccnc2)c2ccc(Cl)cc2Cl)cc1OC (stereo unspecified)
Output: True

Task: I wonder whether OC(Cn1cncn1)(Cn1cncn1)c1ccc(F)cc1F [FLUCONAZOLE] has MIC below 0.1 µg/mL. Can you tell?
Output: False

Task: Hi there! Is MIC for COc1ccc(C[Se]C(Cn2ccnc2)c2ccc(Cl)cc2Cl)cc1 (stereo unspecified) below 0.1 µg/mL, do you know?
Output: False

###

Listed compounds paired with reported MIC
tested on: Candida albicans; assay: Antifungal activity against fluconazole-resistant Candida albicans 17 measured after 24 hrs by micro-broth dilution assay; type: functional

Task: Lab note: need MIC with Candida albicans for entry Fc1cccc(C[Se]C(Cn2ccnc2)c2ccc(F)cc2F)c1 (stereo not drawn) , please look it up.
Output: 0.06 µg/mL

Task: Any idea what MIC came out for Clc1ccc(C(Cn2ccnc2)[Se]Cc2ccccc2Br)c(Cl)c1 (stereo not drawn) on Candida albicans?
Output: 0.5 µg/mL

Task: Lab note: need MIC for COc1ccc(C[Se]C(Cn2ccnc2)c2ccc(Cl)cc2Cl)cc1 (stereo not drawn) on Candida albicans, anyone have it?
Output: 16 µg/mL

***
Task: Tell me reported MIC for COc1cccc(C[Se]C(Cn2ccnc2)c2ccc(F)cc2F)c1 (stereo not drawn) , tested with Candida albicans.
Output: 16 µg/mL

Task: Reported MIC for Candida albicans, given Cc1cccc(C[Se]C(Cn2ccnc2)c2ccc(F)cc2F)c1 (stereo not drawn) ?
Output: 8 µg/mL

Task: Write down the reported MIC of Cc1ccc(C[Se]C(Cn2ccnc2)c2ccc(Cl)cc2Cl)cc1 (stereo not drawn) , test system: Candida albicans.
Output: 32 µg/mL

Task: Provide value of MIC for this record tested with Candida albicans: Cc1ccc(C[Se]C(Cn2ccnc2)c2ccc(F)cc2F)cc1 (stereo not drawn)
Output: 2 µg/mL

Task: What is its MIC for Candida albicans? Entry: Cc1ccc(C[Se]C(Cn2ccnc2)c2ccc(F)cc2F)cc1C (stereo not drawn)
Output: 64 µg/mL

###

test system: Candida albicans; test: Antifungal activity against fluconazole-resistant Candida albicans 17 measured after 24 hrs by micro-broth dilution assay; format: functional
Classify: 1.0 when MIC is strictly less than 8 µg/mL; 0.0 when MIC is not.

Task: MIC strictly < 8 µg/mL for this molecule? Fc1ccc(C(Cn2ccnc2)[Se]Cc2ccccc2Br)c(F)c1 (stereo not drawn)
Output: 1.0

###

Recorded log10 MIC, one value per entry.
test system: Candida parapsilosis; assay: Antifungal activity against Candida parapsilosis ATCC 22019 measured after 24 hrs by micro-broth dilution assay; assay type: functional; details: Lodderomyces parapsilosis
Short version: log10 scale, MIC, µg/mL.

Study these solved cases before continuing.
Task: Given the entry Fc1ccc(C(Cn2ccnc2)[Se]Cc2ccccc2Br)c(F)c1 (stereo unspecified) , report its measured log10 MIC.
Output: -1.70

Task: Need log10 MIC of COc1cc(C[Se]C(Cn2ccnc2)c2ccc(Cl)cc2Cl)cc(OC)c1 (stereo unspecified) , thanks.
Output: -0.30

Task: Item under review: Fc1cccc(C[Se]C(Cn2ccnc2)c2ccc(F)cc2F)c1 (stereo unspecified) . Reported log10 MIC?
Output: -0.60

Task: For the molecule Fc1ccc(C[Se]C(Cn2ccnc2)c2ccc(Cl)cc2Cl)cc1 (stereo unspecified) , what log10 MIC is on record?
Output: -0.30

Task: Find the recorded log10 MIC belonging to Fc1ccc(C[Se]C(Cn2ccnc2)c2ccc(F)cc2F)cc1 (stereo unspecified) and report it.
Output: -0.60

Further cases:
Task: Query (molecule): COc1cccc(C[Se]C(Cn2ccnc2)c2ccc(Cl)cc2Cl)c1 (stereo unspecified) ; field requested: log10 MIC
Output: -0.89

Task: For Fc1ccc(C(Cn2ccnc2)[Se]Cc2ccc(Br)cc2)c(F)c1 (stereo unspecified) , what is its reported log10 MIC?
Output: -0.60

Task: What log10 MIC value was documented for this molecule, Clc1ccc(C[Se]C(Cn2ccnc2)c2ccc(Cl)cc2Cl)cc1 (stereo unspecified) ?
Output: -0.30

Task: Return reported log10 MIC; argument: Fc1ccc(Br)c(C[Se]C(Cn2ccnc2)c2ccc(Cl)cc2Cl)c1 (stereo unspecified)
Output: -1.70

Task: // log10 MIC lookup, key: Clc1ccc(C(Cn2ccnc2)[Se]Cc2ccccc2Br)c(Cl)c1 (stereo unspecified)
Output: -1.52
